# Experimental Target: Alpha-2A adrenergic receptor (Homo sapiens); further: in other assays of this panel Not Active means under 50% inhibition at 10 µM
# Sequence (P08913 whole entry): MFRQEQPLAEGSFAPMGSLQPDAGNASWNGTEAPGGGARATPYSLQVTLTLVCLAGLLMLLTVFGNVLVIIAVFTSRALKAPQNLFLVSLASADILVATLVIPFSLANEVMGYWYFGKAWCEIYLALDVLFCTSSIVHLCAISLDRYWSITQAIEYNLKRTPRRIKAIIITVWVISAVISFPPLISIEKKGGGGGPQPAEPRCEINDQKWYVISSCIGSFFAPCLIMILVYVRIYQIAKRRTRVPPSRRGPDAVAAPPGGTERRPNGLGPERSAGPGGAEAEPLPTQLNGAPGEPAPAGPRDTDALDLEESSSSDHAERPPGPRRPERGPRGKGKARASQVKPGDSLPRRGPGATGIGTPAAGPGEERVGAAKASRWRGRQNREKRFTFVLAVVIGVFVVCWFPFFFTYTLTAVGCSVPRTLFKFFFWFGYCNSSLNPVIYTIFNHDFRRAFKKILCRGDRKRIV
# Format: cell membranes, Sf9, Membrane
# Condition Summary: sf9; read-out: Ki
Measured Endpoint: pKi
Recall that pKi is obtained by taking minus log10 of the concentration measured in molar.

-- ask // Input: AURANOFIN . Output its pKi only.
-- reply 6.48

====

# Experimental Target: Calcitonin receptor (Homo sapiens, UniProt P30988); further: in other assays of this panel Not Active means under 50% inhibition at 10 µM
# Sequence (P30988 whole entry): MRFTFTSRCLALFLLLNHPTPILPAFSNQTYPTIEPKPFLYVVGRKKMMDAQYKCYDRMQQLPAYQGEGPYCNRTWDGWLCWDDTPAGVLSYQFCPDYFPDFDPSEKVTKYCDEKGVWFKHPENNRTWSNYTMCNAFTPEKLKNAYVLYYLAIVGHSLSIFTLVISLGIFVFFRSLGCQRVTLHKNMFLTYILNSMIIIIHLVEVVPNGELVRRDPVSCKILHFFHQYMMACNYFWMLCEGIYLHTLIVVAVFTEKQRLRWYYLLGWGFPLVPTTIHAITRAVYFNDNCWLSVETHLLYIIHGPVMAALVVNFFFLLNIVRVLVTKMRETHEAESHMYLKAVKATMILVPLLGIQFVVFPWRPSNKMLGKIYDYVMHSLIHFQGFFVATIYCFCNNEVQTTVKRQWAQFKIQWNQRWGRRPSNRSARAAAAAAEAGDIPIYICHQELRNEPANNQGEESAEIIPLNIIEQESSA
# Type: cell membranes, Membrane
# Condition Summary: t47d
Measured Endpoint: IC50

Reference set (5 entries):
Brc1c(NC2=NCCN2)ccc2nccnc12 [BRIMONIDINE] ... Not Active
Cc1ccc(NC(=O)c2ccc(CN3CCN(C)CC3)cc2)cc1Nc1nccc(-c2cccnc2)n1 [IMATINIB] ... Not Active
CCN(CC)CC(=O)Nc1c(C)cccc1C [LIDOCAINE] ... Not Active
CN1[C@@H]2CC[C@H]1C[C@@H](OC(=O)C(CO)c1ccccc1)C2 (stereo not given in full) [ATROPINE] ... Not Active
CCCN(CCC)S(=O)(=O)c1ccc(C(=O)O)cc1 [PROBENECID] ... Not Active

-- ask // Input: CN(C/C=C/C#CC(C)(C)C)Cc1cccc2ccccc12 [TERBINAFINE] . Output its IC50 only.
-- reply Not Active

-- ask // Input: CC[C@H]1CN2CCc3cc(OC)c(OC)cc3[C@@H]2C[C@@H]1C[C@H]1NCCc2cc(OC)c(OC)cc21 [EMETINE] . Output its IC50 only.
-- reply Not Active

-- ask // Input: CCCOc1ccc(C(=O)OCCN(CC)CC)cc1N [PROPARACAINE] . Output its IC50 only.
-- reply Not Active

-- ask // Input: CC(c1cc2ccccc2s1)N(O)C(N)=O (stereo not given) [ZILEUTON] . Output its IC50 only.
-- reply Not Active

-- ask // Input: Nc1cc(N2CCCCC2)nc(N)[n+]1[O-] [MINOXIDIL] . Output its IC50 only.
-- reply Not Active

====

# Method: DRUGMATRIX: Imidazoline I2, Central radioligand binding (ligand: [3H] Idazoxan)
# Format: cell membranes, Rattus norvegicus, Wistar, Cerebral cortex, Membrane
# Condition Summary: Not Active = under 50% inhibition at 10 µM
Measured Endpoint: IC50

Reference set (6 entries):
NYSTATIN ... Not Active
GADOPENTETATE DIMEGLUMINE ... Not Active
GENTAMICIN ... Not Active
GRAMICIDIN ... Not Active
AURANOFIN ... Not Active
SODIUM ORTHOVANAD ... Not Active

API: the following record is the query input.
-- ask // Input: MANGANESE CHLORIDE ANHYDROUS . Output its IC50 only.
-- reply Not Active

====

# Experimental Target: Thromboxane-A synthase (Homo sapiens, UniProt P24557);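 further: enzyme inhibition assay with PGH2 supplied as substrate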; further: in other assays of this panel Not Active means under 50% inhibition at 10 µM
# Sequence (P24557 whole entry): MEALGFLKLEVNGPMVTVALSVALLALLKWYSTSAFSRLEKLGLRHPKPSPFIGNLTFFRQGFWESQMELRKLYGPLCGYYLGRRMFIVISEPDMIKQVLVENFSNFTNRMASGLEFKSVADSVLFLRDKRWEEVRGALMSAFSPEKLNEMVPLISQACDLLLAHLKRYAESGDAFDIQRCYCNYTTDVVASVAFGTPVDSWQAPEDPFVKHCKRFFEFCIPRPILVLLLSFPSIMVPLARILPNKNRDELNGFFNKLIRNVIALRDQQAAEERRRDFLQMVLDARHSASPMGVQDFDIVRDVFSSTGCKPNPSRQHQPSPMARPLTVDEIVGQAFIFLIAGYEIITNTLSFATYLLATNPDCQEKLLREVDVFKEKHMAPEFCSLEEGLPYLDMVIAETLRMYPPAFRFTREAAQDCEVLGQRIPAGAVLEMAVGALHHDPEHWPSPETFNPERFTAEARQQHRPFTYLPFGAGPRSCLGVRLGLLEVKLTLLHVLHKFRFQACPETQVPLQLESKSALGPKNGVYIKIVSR
# Method: biochemical
# Assay type: tissue-based, Platelet
# Condition Summary: platelet
Measured Endpoint: IC50

Reference set (8 entries):
COc1ccc(C2C(=O)c3ccccc3C2=O)cc1 ... Not Active
CC(C)NCC(O)c1ccc(O)c(O)c1 (stereo unspecified) ... Not Active
CC(C)NCC(O)COc1cccc2[nH]ccc12 (stereo unspecified) ... Not Active
O=C(Nc1ccc(Br)cc1)c1cc(Br)cc(Br)c1O ... Not Active
C#CC1(O)CC[C@H]2[C@@H]3CCC4=CC(=O)CC[C@@H]4[C@H]3CC[C@@]21CC (stereo partly specified) ... Not Active
O.O.O.O.O.O.[Cl-].[Cl-].[Sr+2] [STRONTIUM CHLORIDE HEXAHYDRATE] ... Not Active
COc1cc(N)c(Cl)cc1C(=O)NC1CCN(CCCOc2ccc(F)cc2)CC1OC (stereo unspecified) [CISAPRIDE] ... Not Active
Cn1c(=O)c2[nH]cnc2n(C)c1=O.Cn1c(=O)c2[nH]cnc2n(C)c1=O.NCCN ... Not Active

-- ask Supply IC50 measured with Thromboxane-A synthase (Homo sapiens, UniProt P24557) for CC(C)Oc1ccc2c(=O)c(-c3ccccc3)coc2c1 .
-- reply Not Active

-- ask Supply IC50 measured with Thromboxane-A synthase (Homo sapiens, UniProt P24557) for Cc1cccc(C)c1OCC(C)N (stereo unspecified) .
-- reply Not Active

-- ask Supply IC50 measured with Thromboxane-A synthase (Homo sapiens, UniProt P24557) for COC(=O)Nc1nc2ccc(C(=O)c3cccs3)cc2[nH]1 .
-- reply Not Active

-- ask Supply IC50 measured with Thromboxane-A synthase (Homo sapiens, UniProt P24557) for C[C@H]1O[C@@H](n2cc(F)c(=O)[nH]c2=O)[C@H](O)[C@@H]1O .
-- reply Not Active

-- ask Supply IC50 measured with Thromboxane-A synthase (Homo sapiens, UniProt P24557) for CC(C)Cc1ccc([C@@H](C)C(=O)O)cc1 [(R)-IBUPROPHEN] .
-- reply Not Active

-- ask Supply IC50 measured with Thromboxane-A synthase (Homo sapiens, UniProt P24557) for Cn1c(=O)c2c(ncn2CC(O)CO)n(C)c1=O (stereo unspecified) .
-- reply Not Active

-- ask Supply IC50 measured with Thromboxane-A synthase (Homo sapiens, UniProt P24557) for CN(C)CC[C@@H](c1ccc(Cl)cc1)c1ccccn1 .
-- reply Not Active

-- ask Supply IC50 measured with Thromboxane-A synthase (Homo sapiens, UniProt P24557) for CCN(CC)CCNC(=O)c1cc(S(C)(=O)=O)ccc1OC [TIAPRIDE] .
-- reply Not Active

-- ask Supply IC50 measured with Thromboxane-A synthase (Homo sapiens, UniProt P24557) for COc1ccc(CCN(C)CCCC(C#N)(c2ccc(OC)c(OC)c2)C(C)C)cc1OC (stereo unspecified) .
-- reply Not Active

-- ask Supply IC50 measured with Thromboxane-A synthase (Homo sapiens, UniProt P24557) for C[n+]1ccccc1/C=N/O.[Cl-] [PRALIDOXIME CHLORIDE] .
-- reply Not Active

====

# Experimental Target: Polyunsaturated fatty acid lipoxygenase ALOX15 (Oryctolagus cuniculus, UniProt P12530); further: in other assays of this panel Not Active means under 50% inhibition at 10 µM;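 further: inhibition of 15-lipoxygenase enzyme activity measured with linoleic acid as the substrate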
# Sequence (P12530 whole entry): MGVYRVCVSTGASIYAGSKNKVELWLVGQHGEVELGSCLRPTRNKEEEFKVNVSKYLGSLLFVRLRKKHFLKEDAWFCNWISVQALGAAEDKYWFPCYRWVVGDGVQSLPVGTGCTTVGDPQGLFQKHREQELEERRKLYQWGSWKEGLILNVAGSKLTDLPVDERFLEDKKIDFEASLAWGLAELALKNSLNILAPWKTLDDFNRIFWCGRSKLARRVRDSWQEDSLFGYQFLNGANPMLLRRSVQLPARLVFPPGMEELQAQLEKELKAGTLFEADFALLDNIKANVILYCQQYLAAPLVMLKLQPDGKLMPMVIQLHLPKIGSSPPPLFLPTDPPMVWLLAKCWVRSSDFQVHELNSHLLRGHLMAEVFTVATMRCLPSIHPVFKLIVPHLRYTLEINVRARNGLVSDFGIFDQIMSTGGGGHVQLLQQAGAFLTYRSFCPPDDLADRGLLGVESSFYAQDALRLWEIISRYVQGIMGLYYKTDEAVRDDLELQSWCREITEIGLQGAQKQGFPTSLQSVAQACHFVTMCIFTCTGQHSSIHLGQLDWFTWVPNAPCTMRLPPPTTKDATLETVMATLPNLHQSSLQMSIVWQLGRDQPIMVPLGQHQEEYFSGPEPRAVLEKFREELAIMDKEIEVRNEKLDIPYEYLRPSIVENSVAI
# Method: biochemical
# Format: tissue-based, Reticulocytes
# Condition Summary: read-out: IC50
Would you mind telling me the reported pIC50 of each entry?
Recall that pIC50 is obtained by taking minus log10 of the concentration measured in molar.

-- ask Supply pIC50 measured with Polyunsaturated fatty acid lipoxygenase ALOX15 (Oryctolagus cuniculus, UniProt P12530) for COc1cc([C@@H]2c3cc4c(cc3[C@@H](O[C@@H]3O[C@@H]5CO[C@@H](C)O[C@H]5[C@H](O)[C@H]3O)[C@H]3COC(=O)[C@H]23)OCO4)cc(OC)c1O [ETOPOSIDE] .
-- reply 5.50

-- ask Supply pIC50 measured with Polyunsaturated fatty acid lipoxygenase ALOX15 (Oryctolagus cuniculus, UniProt P12530) for CC(C)NCC(O)c1ccc(O)c(O)c1 (stereo unspecified) .
-- reply 5.75

-- ask Supply pIC50 measured with Polyunsaturated fatty acid lipoxygenase ALOX15 (Oryctolagus cuniculus, UniProt P12530) for NNc1nncc2ccccc12 [HYDRALAZINE] .
-- reply 5.44

-- ask Supply pIC50 measured with Polyunsaturated fatty acid lipoxygenase ALOX15 (Oryctolagus cuniculus, UniProt P12530) for CC(C)c1cccc(C(C)C)c1O .
-- reply 5.12

-- ask Supply pIC50 measured with Polyunsaturated fatty acid lipoxygenase ALOX15 (Oryctolagus cuniculus, UniProt P12530) for Oc1cccc(O)c1O .
-- reply 5.67

-- ask Supply pIC50 measured with Polyunsaturated fatty acid lipoxygenase ALOX15 (Oryctolagus cuniculus, UniProt P12530) for Cc1c(C)c2c(c(C)c1O)CCC(C)(CN1CCN(c3cc(N4CCCC4)nc(N4CCCC4)n3)CC1)O2 (stereo unspecified) .
-- reply 5.25

====

Would you mind telling me the reported log10(IC50) of each entry?
# Experimental Target: Muscarinic acetylcholine receptor M4 (Homo sapiens, UniProt P08173); further: in other assays of this panel Not Active means under 50% inhibition at 10 µM
# Sequence (P08173 whole entry): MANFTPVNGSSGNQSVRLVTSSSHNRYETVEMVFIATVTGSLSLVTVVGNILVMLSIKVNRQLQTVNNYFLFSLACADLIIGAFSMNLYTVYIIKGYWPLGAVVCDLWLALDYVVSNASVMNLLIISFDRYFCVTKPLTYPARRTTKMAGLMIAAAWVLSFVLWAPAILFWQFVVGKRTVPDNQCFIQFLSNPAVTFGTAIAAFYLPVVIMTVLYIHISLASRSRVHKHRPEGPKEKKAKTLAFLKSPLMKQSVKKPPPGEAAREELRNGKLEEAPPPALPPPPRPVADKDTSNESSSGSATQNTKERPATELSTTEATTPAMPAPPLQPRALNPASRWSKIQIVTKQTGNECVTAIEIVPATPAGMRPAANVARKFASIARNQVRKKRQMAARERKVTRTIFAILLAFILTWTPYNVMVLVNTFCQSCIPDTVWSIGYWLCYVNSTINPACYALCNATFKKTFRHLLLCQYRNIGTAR
# Type: cell membranes, CHO-K1, Membrane
# Condition Summary: read-out: IC50
Hey, these are logged values: log10 of IC50, µM being the unit before logging.

-- ask Supply log10(IC50) measured with Muscarinic acetylcholine receptor M4 (Homo sapiens, UniProt P08173) for CCN(CC)CCOc1ccc(/C(=C(/Cl)c2ccccc2)c2ccccc2)cc1 [ENCLOMIPHENE] .
-- reply 0.22

-- ask Supply log10(IC50) measured with Muscarinic acetylcholine receptor M4 (Homo sapiens, UniProt P08173) for CN(C)CC[C@@H](c1ccc(Cl)cc1)c1ccccn1 [DEXCHLORPHENIRAMINE] .
-- reply 0.30

-- ask Supply log10(IC50) measured with Muscarinic acetylcholine receptor M4 (Homo sapiens, UniProt P08173) for OC(CCCN1CCCCC1)(c1ccccc1)c1ccccc1 [DIPHENIDOL] .
-- reply -0.57

-- ask Supply log10(IC50) measured with Muscarinic acetylcholine receptor M4 (Homo sapiens, UniProt P08173) for Clc1ccc(COC(Cn2ccnc2)c2ccc(Cl)cc2Cl)cc1 (stereo unspecified) [ECONAZOLE] .
-- reply 0.33

-- ask Supply log10(IC50) measured with Muscarinic acetylcholine receptor M4 (Homo sapiens, UniProt P08173) for Fc1ccc(C(c2ccc(F)cc2)N2CCN(C/C=C/c3ccccc3)CC2)cc1 [FLUNARIZINE] .
-- reply 0.75

-- ask Supply log10(IC50) measured with Muscarinic acetylcholine receptor M4 (Homo sapiens, UniProt P08173) for CN[C@H]1CC[C@@H](c2ccc(Cl)c(Cl)c2)c2ccccc21 [SERTRALINE] .
-- reply 0.42
